These measurements were taken from patent US5070210A.

- Test system: Maize weevil [Sitophilus Zeamais (Motschulsky)]
- Experimental Protocol: Maize weevil insecticidal test
- Format: in vivo
- Condition Details: adult weevils, percent in solution; 48 hours

- Smiles Text: "CC(C)C(=Nc1ccc(Cl)c(OCC(F)(F)F)c1)OCc1ccc(F)c(Oc2ccc(Cl)cc2)c1"
  LC50, MW: "> 0.01%"
- Smiles Text: "CC(C)C(=Nc1cccc(C(F)(F)F)c1)OCc1cccc(Oc2ccc(Cl)cc2)n1"
  LC50, MW: "0.0076%"
- Smiles Text: "CC(C)C(=Nc1cccc(C(F)(F)F)c1)OCc1coc(Cc2ccccc2)c1"
  LC50, MW: "> 0.01%"
- Smiles Text: "CC(C)C(=Nc1ccc(F)c(Cl)c1)OCc1cccc(Oc2ccc(Cl)cc2)n1"
  LC50, MW: "0.01%"
- Smiles Text: "CC(C)C(=Nc1ccc(F)c(I)c1)OCc1cccc(Oc2ccc(Cl)cc2)c1"
  LC50, MW: "> 0.01%"
- Smiles Text: "CC(C)C(=Nc1ccc(F)c(F)c1)OCc1cccc(Oc2ccc(F)cc2)c1"
  LC50, MW: "0.0075%"
- Smiles Text: "CC(C)C(=Nc1cccc(C(F)(F)F)c1)OCc1cc(Oc2ccc(Cl)cc2)ccn1"
  LC50, MW: "> 0.01%"
- Smiles Text: "CCOc1ccc(N=C(OCc2cccc(Oc3ccccc3)c2)C(C)C)cc1Cl"
  LC50, MW: "> 0.01%"
- Smiles Text: "CCc1ccccc1N=C(OCc1cccc(Oc2ccc(F)cc2)c1)C(C)C"
  LC50, MW: "> 0.01%"
- Smiles Text: "CC(C)C(=Nc1ccc(OC(F)(F)F)cc1)OCc1cccc(Cc2ccccc2)c1"
  LC50, MW: "> 0.01%"
- Smiles Text: "CCC(=Nc1ccc(F)c(Cl)c1)OCc1cccc(Oc2ccccc2)c1"
  LC50, MW: "> 0.01%"
- Smiles Text: "Cc1cc(N=C(OCc2ccc(F)c(Oc3ccc(F)cc3)c2)C(C)C)ccc1F"
  LC50, MW: "> 0.01%"
- Smiles Text: "Fc1ccc(COC(=Nc2ccc(C(F)(F)F)cc2)C2CC2)cc1Oc1ccccc1"
  LC50, MW: "< 0.01%"
- Smiles Text: "CC(C)C(=Nc1ccc(Cl)c(Cl)c1)OCc1cccc(Oc2ccc(Cl)cc2)n1"
  LC50, MW: "> 0.01%"
- Smiles Text: "COc1cccc(N=C(OCc2cccc(Oc3ccccc3)c2)C(C)C)c1"
  LC50, MW: "> 0.01%"
- Smiles Text: "COc1ccc(N=C(OCc2ccc(F)c(Oc3ccc(Cl)cc3)c2)C(C)C)cc1Cl"
  LC50, MW: "> 0.01%"
- Smiles Text: "CC(C)C(=Nc1ccc(OCC(F)(F)F)c(F)c1)OCc1cccc(Oc2ccc(Cl)cc2)c1"
  LC50, MW: "> 0.01%"

* * *

- Tested on: Cabbage Looper [Trichoplusia ni (Hubner)]
- Experimental Protocol: Cabbage looper insecticidal test
- Assay type: in vivo
- Condition Details: second-instar larvae, percent in solution; 3-5 days
Label Y when LC50, CL is strictly below 0.002%; otherwise label N.

- Molecule: "CC(C)C(=Nc1ccc(C(C)(C)C)c(Cl)c1)OCc1cccc(Oc2ccc(F)cc2)c1"
  Assayed Target: "Cabbage Looper [Trichoplusia ni (Hubner)]"
  Label Value: "N"
- Molecule: "CC(C)(F)C(=Nc1ccc(F)c(F)c1)OCc1cccc(Oc2ccc(F)cc2)c1"
  Assayed Target: "Cabbage Looper [Trichoplusia ni (Hubner)]"
  Label Value: "Y"
- Molecule: "CC(Br)C(=Nc1ccc(F)c(Cl)c1)OCc1cccc(Oc2ccc(F)cc2)c1 (centres unmarked)"
  Assayed Target: "Cabbage Looper [Trichoplusia ni (Hubner)]"
  Label Value: "N"
- Molecule: "CC(C)C(=Nc1cccc(Br)c1)OCc1cccc(Oc2ccc(Cl)cc2)n1"
  Assayed Target: "Cabbage Looper [Trichoplusia ni (Hubner)]"
  Label Value: "Y"
- Molecule: "CC(C)C(=Nc1ccc(F)cc1)OCc1cccc(Oc2ccccc2)c1"
  Assayed Target: "Cabbage Looper [Trichoplusia ni (Hubner)]"
  Label Value: "N"
- Molecule: "CC(C)C(=Nc1cccc(C(F)(F)F)c1)OC(C)c1cccc(Oc2ccccc2)n1 (centres unmarked)"
  Assayed Target: "Cabbage Looper [Trichoplusia ni (Hubner)]"
  Label Value: "N"
- Molecule: "Cc1cc(N=C(OCc2ccc(F)c(Oc3ccc(F)cc3)c2)C(C)C)ccc1Br"
  Assayed Target: "Cabbage Looper [Trichoplusia ni (Hubner)]"
  Label Value: "N"
